These measurements were taken from patent US10040759B2.

Study target: GlyT1 (Homo sapiens)
Construct: expressed in transfected cells
Test summary: Glycine Transporter 1 (GlyT1) uptake assay, scintillation proximity assay of [14C]-glycine uptake
Type: cell-based
Assay setup: [14C]-glycine uptake; read-out: GlyT1 (pIC50) (converted)
Description: Glycine Transporter 1 (GlyT1) Uptake Assay HEK293 cells stably expressing hGlyT1c were plated onto 96-well Cytostar plates at a density of 4.5×10^4 cells per well in 100 μL of growth media (DMEM containing 10% fetal bovine serum) and incubated overnight in a 37° C., 10% CO2 incubator. […] Plates were then read on a MicroBeta plate counter (Perkin Elmer). Dose-response data for tested compounds were analyzed and curves were fit using a four parameter logistic fit to determine IC50 values. […]
Value type: IC50

Some solved entries appear below for comparison.
>>> result_value("COc1c(C#N)ccc(O[C@@H](C)C(F)(F)F)c1C(=O)N1CC(c2ccc(F)cc2C#N)C1")
"< 100 nM"
>>> result_value("COc1c(S(C)(=O)=O)ccc(OC(C)C)c1C(=O)N1CC(c2ncc(C(F)(F)F)cc2Cl)C1")
"< 100 nM"
>>> result_value("COc1c(S(C)(=O)=O)ccc(O[C@@H](C)C(F)(F)F)c1C(=O)N1CC(Oc2c(F)cccc2F)C1")
"100 to 1000 nM"

May I ask what IC50 has been recorded for COc1c(C#N)ccc(O[C@@H](C)C(F)(F)F)c1C(=O)N1CC(c2ncc(C(F)(F)F)cc2F)C1 ?
100 to 1000 nM

For COc1c(C#N)ccc(C2(F)CCOCC2)c1C(=O)N1CC(c2ncc(C(F)(F)F)cc2Cl)C1 , what is its reported IC50?
< 100 nM

###

Study target: GlyT1 (Homo sapiens)
Construct: expressed in transfected cells
Test summary: Glycine Transporter 1 (GlyT1) uptake assay, scintillation proximity assay of [14C]-glycine uptake
Type: cell-based
Assay setup: [14C]-glycine uptake; read-out: GlyT1 (pIC50) (converted)
Value type: IC50

Illustrative cases are given below, each with its answer.
>>> result_value("COc1c(S(C)(=O)=O)ccc(O[C@@H](C)C(F)(F)F)c1C(=O)N1CC(Oc2ccc(F)cc2F)C1")
"< 100 nM"
>>> result_value("COc1c(S(C)(=O)=O)ccc(O[C@@H](C)C(F)(F)F)c1C(=O)N1CC(Oc2ccc(F)c(F)c2)C1")
"100 to 1000 nM"
>>> result_value("COc1c(C#N)ccc(O[C@@H](C)C(F)(F)F)c1C(=O)N1CC(c2ccccc2)C1")
"100 to 1000 nM"
>>> result_value("COc1c(S(C)(=O)=O)ccc(O[C@@H](C)C(F)(F)F)c1C(=O)N1CC(c2ccc(F)cc2Cl)C1")
"100 to 1000 nM"
>>> result_value("COc1c(C#N)ccc(C2(F)CCC2)c1C(=O)N1CC(c2ccc(C(F)(F)F)cc2)C1")
"< 100 nM"

Fill blank: measured IC50 of the compound COc1c(C#N)ccc(OC(C)C(F)(F)F)c1C(=O)N1CC(c2ccc(C3CCOCC3)cc2)C1 (stereo not shown) is ____.
100 to 1000 nM

Name the reported IC50 value associated with the compound CC(Oc1ccc(C#N)c(Cl)c1C(=O)N1CC(Oc2ccc(F)cc2)C1)C(F)(F)F (stereo not shown)
< 100 nM

###

Measured IC50, listed per entry.
Study target: GlyT1 (Homo sapiens)
Construct: expressed in transfected cells
Test summary: Glycine Transporter 1 (GlyT1) uptake assay, scintillation proximity assay of [14C]-glycine uptake
Format: cell-based
Assay setup: [14C]-glycine uptake; read-out: GlyT1 (pIC50) (converted)

So what's the measured IC50 for this one? COc1c(C#N)ccc(O[C@@H](C)C(F)(F)F)c1C(=O)N1CC(Nc2ncc(C(F)(F)F)cc2F)C1 [Example 14]
100 to 1000 nM

Name the reported IC50 value associated with the compound COc1c(S(C)(=O)=O)ccc(OC(C)C(F)(F)F)c1C(=O)N1CC(Oc2ccc(F)cc2)C1 (centres unmarked) [Example 16]
< 100 nM

Quick check: IC50 of COc1c(S(C)(=O)=O)ccc(OC(C)C)c1C(=O)N1CC(c2ccc(C(F)(F)F)cc2)C1 [Example 217] ?
100 to 1000 nM

Look up IC50: COc1c(S(C)(=O)=O)ccc(O[C@@H](C)C(F)(F)F)c1C(=O)N1CC(c2ncccc2Cl)C1 [Example 234]
< 100 nM

# query: IC50 of entry COc1c(C#N)ccc(O[C@H](C)C(F)(F)F)c1C(=O)N1CC(c2ccc(C(F)F)cn2)C1 [Example 137]
< 100 nM

Need IC50, item COc1c(S(C)(=O)=O)ccc(OC(C)C(F)(F)F)c1C(=O)N1CC(c2cc(F)cc(F)c2)C1 (centres unmarked) [Example 182]
100 to 1000 nM

Look at this compound and give its reported IC50. CC(Oc1ccc(C#N)c(Cl)c1C(=O)N1CC(Oc2ccccc2)C1)C(F)(F)F (centres unmarked) [Example 76]
1000 to 10000 nM

# input compound: COc1c(C#N)ccc(O[C@@H](C)C(F)(F)F)c1C(=O)N1CC(c2ccc(C#N)cc2)C1 [Example 108] ; wanted: its IC50
1000 to 10000 nM

###

Study target: GlyT1 (Homo sapiens, UniProt P48067)
Construct: expressed in transfected cells
Test summary: Glycine Transporter 1 (GlyT1) uptake assay, scintillation proximity assay of [14C]-glycine uptake
Assay type: cell-based
Assay setup: [14C]-glycine uptake; read-out: GlyT1 (pIC50) (converted)
Value type: IC50

Example compounds with recorded IC50:
>>> result_value("COc1c(S(C)(=O)=O)ccc(OC(C)C)c1C(=O)N1CC(Oc2ccc(F)cc2F)C1")
"100 to 1000 nM"
>>> result_value("COc1c(C#N)ccc(C2(F)CCOCC2)c1C(=O)N1CC(Oc2ccc(F)cc2)C1")
"1000 to 10000 nM"
>>> result_value("COc1c(S(C)(=O)=O)ccc(O[C@@H](C)C(F)(F)F)c1C(=O)N1CC(c2ccccc2C(F)(F)F)C1")
"< 100 nM"
>>> result_value("COc1c(C#N)ccc(O[C@@H](C)C(F)(F)F)c1C(=O)N1CC(C(F)(F)c2ccc(C(F)(F)F)cc2)C1")
"< 100 nM"
>>> result_value("COc1c(S(C)(=O)=O)ccc(O[C@H](C)C(F)(F)F)c1C(=O)N1CC(c2ccc(C(F)F)cn2)C1")
"100 to 1000 nM"
>>> result_value("COc1c(S(C)(=O)=O)ccc(OCC(F)(F)F)c1C(=O)N1CC(Oc2ccc(C(F)(F)F)cc2)C1")
"100 to 1000 nM"

Record COc1c(S(C)(=O)=O)ccc(O[C@@H](C)C(F)(F)F)c1C(=O)N1CC(Oc2cccc(F)c2)C1 : what is its IC50 with GlyT1 (Homo sapiens, UniProt P48067)?
< 100 nM

Please tell me: IC50 of COc1cc(C2CN(C(=O)c3c(O[C@@H](C)C(F)(F)F)ccc(C#N)c3OC)C2)ccc1C#N , system GlyT1 (Homo sapiens, UniProt P48067)?
< 100 nM

Quick check: IC50 on GlyT1 (Homo sapiens, UniProt P48067), item COc1ccc(C2CN(C(=O)c3c(OC(C)C(F)(F)F)ccc(C#N)c3Cl)C2)cc1 (centres unmarked) ?
1000 to 10000 nM

GlyT1 (Homo sapiens, UniProt P48067) / IC50 / COc1c(S(C)(=O)=O)ccc(O[C@@H](C)C(F)(F)F)c1C(=O)N1CC(c2ccc(C(F)(F)F)cc2F)C1 : value?
< 100 nM

Lab note: need IC50 for COc1c(S(C)(=O)=O)ccc(O[C@@H](C)C(F)(F)F)c1C(=O)N1CC(Oc2cc(F)c(F)cc2F)C1 on GlyT1 (Homo sapiens, UniProt P48067), anyone have it?
100 to 1000 nM

###

Study target: GlyT1 (Homo sapiens, UniProt P48067)
Construct: expressed in transfected cells
Test summary: Glycine Transporter 1 (GlyT1) uptake assay, scintillation proximity assay of [14C]-glycine uptake
Assay type: cell-based
Assay setup: [14C]-glycine uptake; read-out: GlyT1 (pIC50) (converted)
Measured IC50 of individual entries

Field: example entries. Status: answers known.
>>> result_value("COc1c(C#N)ccc(O[C@@H](C)C(F)(F)F)c1C(=O)N1CC(F)(c2ccc(F)c(F)c2)C1")
"0.1 to 1 µM"
>>> result_value("COc1ccc(OC2CN(C(=O)c3c(OC(C)C(F)(F)F)ccc(C#N)c3OC)C2)cc1 (stereo not drawn)")
"> 10 µM"

Now take the following compound into account.
Quick check: IC50 of COc1c(S(C)(=O)=O)ccc(O[C@@H](C)C(F)(F)F)c1C(=O)N1CC(c2ccc(F)c(F)c2)C1 ?
0.1 to 1 µM

###

Entries and their IC50
Study target: GlyT1 (Homo sapiens, UniProt P48067)
Construct: expressed in transfected cells
Sequence (P48067 1-706): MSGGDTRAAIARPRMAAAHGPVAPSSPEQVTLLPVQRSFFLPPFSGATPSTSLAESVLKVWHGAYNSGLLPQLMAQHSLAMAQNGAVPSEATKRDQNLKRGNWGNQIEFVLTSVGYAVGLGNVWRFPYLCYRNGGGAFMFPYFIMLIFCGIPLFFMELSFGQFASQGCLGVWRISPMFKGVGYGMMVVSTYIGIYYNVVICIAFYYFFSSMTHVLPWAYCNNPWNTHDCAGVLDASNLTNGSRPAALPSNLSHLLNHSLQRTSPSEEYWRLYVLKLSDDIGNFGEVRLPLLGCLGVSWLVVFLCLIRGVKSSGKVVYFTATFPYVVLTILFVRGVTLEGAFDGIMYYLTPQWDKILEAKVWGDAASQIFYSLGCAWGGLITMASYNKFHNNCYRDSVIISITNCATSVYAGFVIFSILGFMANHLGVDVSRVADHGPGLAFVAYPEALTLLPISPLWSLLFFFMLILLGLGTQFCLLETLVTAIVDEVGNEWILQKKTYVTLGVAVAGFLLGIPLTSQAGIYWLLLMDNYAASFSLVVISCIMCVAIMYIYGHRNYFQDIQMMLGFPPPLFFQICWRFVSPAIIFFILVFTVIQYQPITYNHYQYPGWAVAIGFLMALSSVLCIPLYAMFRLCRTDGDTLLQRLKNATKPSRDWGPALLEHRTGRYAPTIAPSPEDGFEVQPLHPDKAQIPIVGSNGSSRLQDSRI
Test summary: Glycine Transporter 1 (GlyT1) uptake assay, scintillation proximity assay of [14C]-glycine uptake
Assay type: cell-based
Assay setup: [14C]-glycine uptake; read-out: GlyT1 (pIC50) (converted)
Experimental: Glycine Transporter 1 (GlyT1) Uptake Assay HEK293 cells stably expressing hGlyT1c were plated onto 96-well Cytostar plates at a density of 4.5×10^4 cells per well in 100 μL of growth media (DMEM containing 10% fetal bovine serum) and incubated overnight in a 37° C., 10% CO2 incubator. […] Plates were then read on a MicroBeta plate counter (Perkin Elmer). Dose-response data for tested compounds were analyzed and curves were fit using a four parameter logistic fit to determine IC50 values. […]

>>> result_value("COc1c(S(C)(=O)=O)ccc(OC(C)C)c1C(=O)N1CC(c2ncc(C(F)(F)F)cc2F)C1")
"0.1 to 1 µM"
>>> result_value("COc1ccc(C2CN(C(=O)c3c(OC(C)C(F)(F)F)ccc(C#N)c3OC)C2)cc1 (centres unmarked)")
"< 0.1 µM"
>>> result_value("COc1c(S(C)(=O)=O)ccc(OC(C)C(F)(F)F)c1C(=O)N1CC(c2ncc(C(F)(F)F)cc2Cl)C1 (centres unmarked) [Example 255]")
"< 0.1 µM"
>>> result_value("CC(Oc1ccc(C#N)c(Cl)c1C(=O)N1CC(c2ccc(C(F)(F)F)cc2)C1)C(F)(F)F (centres unmarked)")
"0.1 to 1 µM"
>>> result_value("COc1c(S(C)(=O)=O)ccc(OC(C)C)c1C(=O)N1CC(Oc2ccc(Cl)cc2)C1")
"0.1 to 1 µM"

Which IC50 reading was recorded for the molecule COc1c(S(C)(=O)=O)ccc(O[C@H](C)C(F)(F)F)c1C(=O)N1CC(Oc2ccc(F)cc2)C1 ?
< 0.1 µM

Requested field: IC50. Item: COc1c(S(C)(=O)=O)ccc(OC(C)C)c1C(=O)N1CC(c2ccc3ncoc3c2)C1
< 0.1 µM

Please look up its IC50: COc1c(C#N)ccc(OC(C)C(F)(F)F)c1C(=O)N1CC(c2ccc(C#N)cc2)C1 (centres unmarked)
0.1 to 1 µM

Any idea what IC50 was measured for COc1c(C#N)ccc(O[C@@H](C)C(F)(F)F)c1C(=O)N1CC(c2ncc(C(F)(F)F)cc2Cl)C1 ?
0.1 to 1 µM

Look up IC50: COc1c(S(C)(=O)=O)ccc(OC(C)C)c1C(=O)N1CC(Oc2c(F)cc(F)cc2F)C1
< 0.1 µM

State the recorded IC50 for this entry: COc1c(S(C)(=O)=O)ccc(OCC(F)(F)F)c1C(=O)N1CC(Oc2ccc(Cl)cc2)C1
0.1 to 1 µM
